The substances listed here are annotated with their IC50.
Target: rat PAC1 receptor (Rattus norvegicus, UniProt P32215)
Construct: SHSY-5Y (human neuroblastoma cell line) and RG-2 (rat glioma cell line) cells endogenously express human and rat PAC1 receptors, respectively; endogenous in cells; host or cells: RG-2 rat glioma cells
Sequence (P32215 20-523): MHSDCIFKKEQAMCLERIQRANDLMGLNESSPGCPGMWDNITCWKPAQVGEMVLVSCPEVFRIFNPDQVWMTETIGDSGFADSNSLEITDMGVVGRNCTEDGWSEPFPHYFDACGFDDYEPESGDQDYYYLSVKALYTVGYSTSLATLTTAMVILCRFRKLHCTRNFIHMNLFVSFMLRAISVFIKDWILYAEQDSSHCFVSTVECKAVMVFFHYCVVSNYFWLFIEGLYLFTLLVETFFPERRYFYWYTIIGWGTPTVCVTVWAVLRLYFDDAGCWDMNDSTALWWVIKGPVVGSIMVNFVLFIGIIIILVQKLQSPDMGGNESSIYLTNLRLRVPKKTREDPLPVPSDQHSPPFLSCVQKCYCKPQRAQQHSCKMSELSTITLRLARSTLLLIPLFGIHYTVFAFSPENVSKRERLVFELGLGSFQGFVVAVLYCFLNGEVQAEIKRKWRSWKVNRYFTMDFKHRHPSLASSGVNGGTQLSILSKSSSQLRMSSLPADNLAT
Assay: LANCE Ultra cAMP accumulation antagonist assay in RG-2 cells;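 note: RG-2 rat glioma cells endogenously expressing PAC1, test peptide preincubated 30 min, then PAC1 agonist added at its EC80 for 15 min, cAMP accumulation read by LANCE Ultra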
Type: cell-based
Bridges are numbered along the chain shown (N, C = ends). Where no end group is shown, it is not given here.

Past entries and their recorded results:
>  <substance>
CDATCQFRKAIDDCYYRSWHANVPGSVFKACMKQKKKEWKAGY (disulfide 1-5, 14-31) [compound 66]

>  <IC50>
0.01 to 1 nM

$$$$
>  <substance>
CDATCQFRKAIDDCWVIAWHSNVPGSVFKACMKQKKKEFKAG-NH2 (disulfide 1-5, 14-31) [compound 130]

>  <IC50>
< 0.01 nM

$$$$
>  <substance>
CDATCQFRKAIDDCDKQAHHSNVPGSVFKACMKQKKKEFQAG-NH2 (disulfide 1-5, 14-31) [compound 169]

>  <IC50>
0.01 to 1 nM

$$$$

Lab note: need IC50 with rat PAC1 receptor (Rattus norvegicus, UniProt P32215) for entry CDATCQFRKAIDDCQRQAHHSNVPGNSVFKECMKQKKKEFK-NH2 (disulfide 1-5, 14-32) [compound 288] , please look it up.
1 to 100 nM

Lab note: need IC50 with rat PAC1 receptor (Rattus norvegicus, UniProt P32215) for entry CDATCQFRKAIDDCDRQAHHSNVPGSVFKACMKQKKKEWKAG-NH2 (disulfide 1-5, 14-31) [SEQ ID NO 163] , please look it up.
0.01 to 1 nM

Lab note: need IC50 with rat PAC1 receptor (Rattus norvegicus, UniProt P32215) for entry CDATCQFRKAIDDCQKQAHHSNVPGSVFKACMKQKKKEFKAGHHHHHH (disulfide 1-5, 14-31) [compound 160] , please look it up.
0.01 to 1 nM

Lab note: need IC50 with rat PAC1 receptor (Rattus norvegicus, UniProt P32215) for entry CDATCQFRKAIDDCYKQAHHSNVPGSVFKACMKQKKKEFKAGH (disulfide 1-5, 14-31) [compound 47] , please look it up.
0.01 to 1 nM

Source listed as patent US20210395313A1.
